Consider the following molecules and their measured higher GFP(3TAG) production compared with the progenitor enzyme readings.
Tested on: GFP(3TAG)
Assay type: cell-based, E. coli
Condition Label: chromosomally integrated AARS; pAcF
Property Label: higher GFP(3TAG) production compared with the progenitor enzyme

>  <Molecule>
pAcFRS.1: pAcFRS variant A167D, SEQ ID NO: 2 (protein) MDEFEMIKRNTSEIISEEELREVLKKDEKSALIGFEPSGKIHLGHYLQIKKMIDLQNAGFDIIILLADLHAYLNQKGELDEIRKIGDYNKKVFEAMGLKAKYVYGSEFQLDKDYTLNVYRLALKTTLKRARRSMELIAREDENPKVAEVIYPIMQVNGCHYRGVDVDVGGMEQRKIHMLARELLPKKVVCIHNPVLTGLDGEGKMSSSKGNFIAVDDSPEEIRAKIKKAYCPAGVVEGNPIMEIAKYFLEYPLTIKRPEKFGGDLTVNSYEELESLFKNKELHPMRLKNAVAEELIKILEPIRKRL

>  <Experimental Value>
~8 fold

$$$$
>  <Molecule>
pAcFRS.t1: pAcFRS variant R257G, SEQ ID NO: 3 (protein) MDEFEMIKRNTSEIISEEELREVLKKDEKSALIGFEPSGKIHLGHYLQIKKMIDLQNAGFDIIILLADLHAYLNQKGELDEIRKIGDYNKKVFEAMGLKAKYVYGSEFQLDKDYTLNVYRLALKTTLKRARRSMELIAREDENPKVAEVIYPIMQVNGCHYRGVDVAVGGMEQRKIHMLARELLPKKVVCIHNPVLTGLDGEGKMSSSKGNFIAVDDSPEEIRAKIKKAYCPAGVVEGNPIMEIAKYFLEYPLTIKGPEKFGGDLTVNSYEELESLFKNKELHPMRLKNAVAEELIKILEPIRKRL

>  <Experimental Value>
~1.5 fold

$$$$
>  <Molecule>
pAcFRS.1.t2: pAcFRS variant A167D, R257C, F261E, SEQ ID NO: 6 (protein) MDEFEMIKRNTSEIISEEELREVLKKDEKSALIGFEPSGKIHLGHYLQIKKMIDLQNAGFDIIILLADLHAYLNQKGELDEIRKIGDYNKKVFEAMGLKAKYVYGSEFQLDKDYTLNVYRLALKTTLKRARRSMELIAREDENPKVAEVIYPIMQVNGCHYRGVDVDVGGMEQRKIHMLARELLPKKVVCIHNPVLTGLDGEGKMSSSKGNFIAVDDSPEEIRAKIKKAYCPAGVVEGNPIMEIAKYFLEYPLTIKCPEKEGGDLTVNSYEELESLFKNKELHPMRLKNAVAEELIKILEPIRKRL

>  <Experimental Value>
~15 fold

$$$$
>  <Molecule>
pAcFRS.t2: pAcFRS variant R257C, F261E, SEQ ID NO: 4 (protein) MDEFEMIKRNTSEIISEEELREVLKKDEKSALIGFEPSGKIHLGHYLQIKKMIDLQNAGFDIIILLADLHAYLNQKGELDEIRKIGDYNKKVFEAMGLKAKYVYGSEFQLDKDYTLNVYRLALKTTLKRARRSMELIAREDENPKVAEVIYPIMQVNGCHYRGVDVAVGGMEQRKIHMLARELLPKKVVCIHNPVLTGLDGEGKMSSSKGNFIAVDDSPEEIRAKIKKAYCPAGVVEGNPIMEIAKYFLEYPLTIKCPEKEGGDLTVNSYEELESLFKNKELHPMRLKNAVAEELIKILEPIRKRL

>  <Experimental Value>
~1.5 fold

$$$$
>  <Molecule>
pAcFRS.1.t1: pAcFRS variant A167D, R257G, SEQ ID NO: 5 (protein) MDEFEMIKRNTSEIISEEELREVLKKDEKSALIGFEPSGKIHLGHYLQIKKMIDLQNAGFDIIILLADLHAYLNQKGELDEIRKIGDYNKKVFEAMGLKAKYVYGSEFQLDKDYTLNVYRLALKTTLKRARRSMELIAREDENPKVAEVIYPIMQVNGCHYRGVDVDVGGMEQRKIHMLARELLPKKVVCIHNPVLTGLDGEGKMSSSKGNFIAVDDSPEEIRAKIKKAYCPAGVVEGNPIMEIAKYFLEYPLTIKGPEKFGGDLTVNSYEELESLFKNKELHPMRLKNAVAEELIKILEPIRKRL

>  <Experimental Value>
~17 fold

$$$$
